Overview of reported MIC across a group of compounds:
Tested on: Bacillus subtilis
Test: Antimicrobial activity against Bacillus subtilis ATCC 6633 assessed as inhibition of microbial growth incubated for 24 hrs
Type: functional
Settings: ATCC 6633, 24 h

smiles data	measurement qualifier	MIC (µM)
CC(=O)N[C@@H](CCCCN)c1nc(C)sc1C(=O)N[C@@H](C)c1nc(CCCCN)sc1C(=O)N[C@@H](C)c1nc(C)sc1C(=O)N[C@@H](CCCCN)c1nc(C)sc1C(=O)N[C@@H](C)c1nc(CCCCN)sc1C(=O)N[C@@H](C)c1nc(C)sc1C(=O)N[C@@H](CCCCN)c1nc(C)sc1C(=O)N[C@@H](C)c1nc(CCCCN)sc1C(=O)N[C@@H](C)c1nc(C)sc1C(=O)N[C@@H](CCCCN)c1nc(C)sc1C(=O)N[C@@H](C)c1nc(CCCCN)sc1C(=O)N[C@@H](C)c1nc(C)sc1C(N)=O	=	0.5
CC(=O)N[C@@H](CCCNC(=N)N)c1nc(C)sc1C(=O)N[C@@H](C)c1nc(C)sc1C(=O)N[C@@H](C)c1nc(C)sc1C(=O)N[C@@H](CCCNC(=N)N)c1nc(C)sc1C(=O)N[C@@H](C)c1nc(C)sc1C(=O)N[C@@H](C)c1nc(C)sc1C(=O)N[C@@H](CCCNC(=N)N)c1nc(C)sc1C(=O)N[C@@H](C)c1nc(C)sc1C(=O)N[C@@H](C)c1nc(C)sc1C(=O)N[C@@H](CCCNC(=N)N)c1nc(C)sc1C(=O)N[C@@H](C)c1nc(C)sc1C(=O)N[C@@H](C)c1nc(C)sc1C(N)=O	=	0.5
CC(=O)N[C@@H](CCCCN)c1nc(C)sc1C(=O)N[C@@H](C)c1nc(CCCCN)sc1C(=O)N[C@@H](C)c1nc(C)sc1C(=O)N[C@@H](CCCCN)c1nc(C)sc1C(=O)N[C@@H](C)c1nc(CCCCN)sc1C(=O)N[C@@H](C)c1nc(C)sc1C(=O)N[C@@H](CCCCN)c1nc(C)sc1C(=O)N[C@@H](C)c1nc(CCCCN)sc1C(=O)N[C@@H](C)c1nc(C)sc1C(N)=O	=	0.8
CC(=O)N[C@@H](CCCCN)c1nc(C)sc1C(=O)N[C@@H](CC(C)C)c1nc(CCCCN)sc1C(=O)N[C@@H](C)c1nc(CC(C)C)sc1C(=O)N[C@@H](CCCCN)c1nc(C)sc1C(=O)N[C@@H](CC(C)C)c1nc(CCCCN)sc1C(=O)N[C@@H](C)c1nc(CC(C)C)sc1C(=O)N[C@@H](CCCCN)c1nc(C)sc1C(=O)N[C@@H](CC(C)C)c1nc(CCCCN)sc1C(=O)N[C@@H](C)c1nc(CC(C)C)sc1C(=O)N[C@@H](CCCCN)c1nc(C)sc1C(=O)N[C@@H](CC(C)C)c1nc(CCCCN)sc1C(=O)N[C@@H](C)c1nc(CC(C)C)sc1C(N)=O	=	4.2
CC(=O)N[C@@H](CCCCN)c1nc(C)sc1C(=O)N[C@@H](C)c1nc(C)sc1C(=O)N[C@@H](C)c1nc(CCCCN)sc1C(=O)N[C@@H](C)c1nc(C)sc1C(=O)N[C@@H](C)c1nc(CCCCN)sc1C(=O)N[C@@H](CCCCN)c1nc(C)sc1C(=O)N[C@@H](C)c1nc(CCCCN)sc1C(=O)N[C@@H](CCCCN)c1nc(C)sc1C(=O)N[C@@H](C)c1nc(C)sc1C(=O)N[C@@H](C)c1nc(C)sc1C(=O)N[C@@H](C)c1nc(CCCCN)sc1C(=O)N[C@@H](CCCCN)c1nc(C)sc1C(N)=O	=	0.8
CC(=O)N[C@@H](CCCCN)c1nc(C)sc1C(=O)N[C@@H](C)c1nc(CCCCN)sc1C(=O)N[C@@H](C)c1nc(C)sc1C(N)=O	>	150
